Measured values drawn from patent US20210253718A1 for this set.

- EXPERIMENTAL TARGET: FZD1 cysteine-rich domain (CRD), MYC-tagged and GPI-anchored on CHO cells (human)
- PROCEDURE SUMMARY: flow cytometry, CHO-CRD cells;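 also: flow cytometry of Fab binding to CHO cells overexpressing a Frizzled CRD, with binding defined as median fluorescence over twice that of CHO cells lacking any Frizzled CRD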
The binders listed here are annotated with their median fluorescence.

{"columns": ["BINDER", "median fluorescence"],
 "data": [
  ["Fab-2920 (Fab, V domains shown, Fab) VH: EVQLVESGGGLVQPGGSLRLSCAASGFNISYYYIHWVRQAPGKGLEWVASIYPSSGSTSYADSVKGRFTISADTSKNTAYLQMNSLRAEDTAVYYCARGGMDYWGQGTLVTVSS VL: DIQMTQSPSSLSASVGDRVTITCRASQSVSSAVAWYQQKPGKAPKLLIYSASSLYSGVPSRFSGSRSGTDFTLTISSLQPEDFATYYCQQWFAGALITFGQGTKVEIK", 5.73],
  ["Fab-2902 (Fab, V domains shown, Fab; also called Fv-2902) VH: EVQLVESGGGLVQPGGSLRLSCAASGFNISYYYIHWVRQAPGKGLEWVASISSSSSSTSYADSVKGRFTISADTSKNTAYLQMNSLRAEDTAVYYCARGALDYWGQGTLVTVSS VL: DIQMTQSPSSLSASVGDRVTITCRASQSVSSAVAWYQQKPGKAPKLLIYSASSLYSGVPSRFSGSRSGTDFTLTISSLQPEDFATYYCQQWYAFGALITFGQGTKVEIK", 6.1]
]}
